# TESTED_ON: UniProt A0A286ZKB1
# ASSAY_NAME: Inhibition of porcine cholesterol esterase at 10 nM using para-nitrophenyl butyrate as substrate after 5 mins in presence of sodium taurocholate by spectrophotometric method relative to control
Hi, to clarify the labels: y covers inhibition from 50% upward, n covers anything below 50%.

STRUCTURE_STRING: CC(=O)Oc1cccc(-c2cc(=O)c3ccc4ccccc4c3o2)c1
TESTED_ON: UniProt A0A286ZKB1
CATEGORY: n
--
STRUCTURE_STRING: O=c1cc(-c2ccc(CCl)cc2)oc2c1ccc1ccccc12
TESTED_ON: UniProt A0A286ZKB1
CATEGORY: n
--
STRUCTURE_STRING: O=c1cc(-c2ccc(I)cc2)oc2c1ccc1ccccc12
TESTED_ON: UniProt A0A286ZKB1
CATEGORY: y
--
STRUCTURE_STRING: O=c1cc(-c2cc(F)ccc2F)oc2c1ccc1ccccc12
TESTED_ON: UniProt A0A286ZKB1
CATEGORY: y
--
STRUCTURE_STRING: O=c1cc(-c2cccc(C(F)(F)F)c2)oc2c1ccc1ccccc12
TESTED_ON: UniProt A0A286ZKB1
CATEGORY: n
--
STRUCTURE_STRING: Cc1ccc(-c2cc(=O)c3ccc4ccccc4c3o2)cc1
TESTED_ON: UniProt A0A286ZKB1
CATEGORY: n
--
STRUCTURE_STRING: O=c1cc(-c2cc(F)cc(C(F)(F)F)c2)oc2c1ccc1ccccc12
TESTED_ON: UniProt A0A286ZKB1
CATEGORY: n
--
STRUCTURE_STRING: O=c1cc(-c2ccc([N+](=O)[O-])cc2)oc2c1ccc1ccccc12
TESTED_ON: UniProt A0A286ZKB1
CATEGORY: y
--
STRUCTURE_STRING: O=c1cc(-c2ccc(F)cc2)oc2c1ccc1ccccc12
TESTED_ON: UniProt A0A286ZKB1
CATEGORY: y
--
STRUCTURE_STRING: O=c1cc(-c2cccc(Cl)c2Cl)oc2c1ccc1ccccc12
TESTED_ON: UniProt A0A286ZKB1
CATEGORY: y
--
STRUCTURE_STRING: O=c1cc(-c2cccc(F)c2)oc2c1ccc1ccccc12
TESTED_ON: UniProt A0A286ZKB1
CATEGORY: y
--
STRUCTURE_STRING: O=c1cc(-c2ccc(C(F)(F)F)cc2)oc2c1ccc1ccccc12
TESTED_ON: UniProt A0A286ZKB1
CATEGORY: n
--
STRUCTURE_STRING: COc1ccc(-c2cc(=O)c3ccc4ccccc4c3o2)cc1OC
TESTED_ON: UniProt A0A286ZKB1
CATEGORY: n
--
STRUCTURE_STRING: O=c1cc(-c2cc(F)cc(F)c2)oc2c1ccc1ccccc12
TESTED_ON: UniProt A0A286ZKB1
CATEGORY: y
--
STRUCTURE_STRING: O=c1cc(-c2cccc(CCl)c2)oc2c1ccc1ccccc12
TESTED_ON: UniProt A0A286ZKB1
CATEGORY: y
--
STRUCTURE_STRING: O=c1cc(-c2ccc(Br)cc2)oc2c1ccc1ccccc12
TESTED_ON: UniProt A0A286ZKB1
CATEGORY: y

====

This section presents compounds with their documented inhibition values.
# TESTED_ON: Carboxylic ester hydrolase (Sus scrofa) (UniProt A0A286ZKB1)
# Sequence (whole entry): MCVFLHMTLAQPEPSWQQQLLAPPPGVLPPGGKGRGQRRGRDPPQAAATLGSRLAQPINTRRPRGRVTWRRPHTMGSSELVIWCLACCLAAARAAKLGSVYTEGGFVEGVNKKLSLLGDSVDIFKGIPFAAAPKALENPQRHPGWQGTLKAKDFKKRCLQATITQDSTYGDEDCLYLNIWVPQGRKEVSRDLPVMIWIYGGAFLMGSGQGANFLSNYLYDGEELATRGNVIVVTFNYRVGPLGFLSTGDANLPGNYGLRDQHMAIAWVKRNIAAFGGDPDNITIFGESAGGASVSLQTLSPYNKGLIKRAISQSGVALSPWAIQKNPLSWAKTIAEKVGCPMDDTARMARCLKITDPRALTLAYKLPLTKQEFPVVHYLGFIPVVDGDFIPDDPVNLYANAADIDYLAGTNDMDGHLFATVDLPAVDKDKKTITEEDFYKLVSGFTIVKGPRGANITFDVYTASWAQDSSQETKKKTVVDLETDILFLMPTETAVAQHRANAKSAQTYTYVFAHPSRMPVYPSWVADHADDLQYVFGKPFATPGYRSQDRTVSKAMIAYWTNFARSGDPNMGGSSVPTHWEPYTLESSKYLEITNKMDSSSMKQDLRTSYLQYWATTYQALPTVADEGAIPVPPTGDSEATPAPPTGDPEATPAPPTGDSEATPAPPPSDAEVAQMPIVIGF
# ASSAY_NAME: Inhibition of porcine cholesterol esterase at 50 nM using para-nitrophenyl butyrate as substrate after 5 mins in presence of sodium taurocholate by spectrophotometric method relative to control

COMPOUND: CC(=O)Oc1ccc(-c2cc(=O)c3ccc4ccccc4c3o2)cc1
inhibition, %: 56
--
COMPOUND: CN(C)c1ccc(-c2cc(=O)c3ccc4ccccc4c3o2)cc1
inhibition, %: 23
--
COMPOUND: O=c1cc(-c2ccccc2)oc2c1ccc1ccccc12 [ALPHA-NAPHTHOFLAVONE]
inhibition, %: 51
--
COMPOUND: O=c1cc(-c2ccc(OC(F)(F)F)cc2)oc2c1ccc1ccccc12
inhibition, %: 46
--
COMPOUND: O=c1cc(-c2cccc(F)c2)oc2c1ccc1ccccc12
inhibition, %: 87
--
COMPOUND: O=c1cc(-c2cccc(C(F)(F)F)c2)oc2c1ccc1ccccc12
inhibition, %: 57
--
COMPOUND: O=c1cc(-c2ccc(C(F)(F)F)cc2F)oc2c1ccc1ccccc12
inhibition, %: 67
--
COMPOUND: O=c1cc(-c2ccc(I)cc2)oc2c1ccc1ccccc12
inhibition, %: 75
--
COMPOUND: O=c1cc(-c2cc(F)cc(C(F)(F)F)c2)oc2c1ccc1ccccc12
inhibition, %: 62
--
COMPOUND: O=c1cc(-c2cc([N+](=O)[O-])cc([N+](=O)[O-])c2)oc2c1ccc1ccccc12
inhibition, %: 76
--
COMPOUND: O=c1cc(-c2cccc(Cl)c2Cl)oc2c1ccc1ccccc12
inhibition, %: 84

====

# TESTED_ON: Carboxylic ester hydrolase (Sus scrofa) (UniProt A0A286ZKB1)
# Sequence (whole entry): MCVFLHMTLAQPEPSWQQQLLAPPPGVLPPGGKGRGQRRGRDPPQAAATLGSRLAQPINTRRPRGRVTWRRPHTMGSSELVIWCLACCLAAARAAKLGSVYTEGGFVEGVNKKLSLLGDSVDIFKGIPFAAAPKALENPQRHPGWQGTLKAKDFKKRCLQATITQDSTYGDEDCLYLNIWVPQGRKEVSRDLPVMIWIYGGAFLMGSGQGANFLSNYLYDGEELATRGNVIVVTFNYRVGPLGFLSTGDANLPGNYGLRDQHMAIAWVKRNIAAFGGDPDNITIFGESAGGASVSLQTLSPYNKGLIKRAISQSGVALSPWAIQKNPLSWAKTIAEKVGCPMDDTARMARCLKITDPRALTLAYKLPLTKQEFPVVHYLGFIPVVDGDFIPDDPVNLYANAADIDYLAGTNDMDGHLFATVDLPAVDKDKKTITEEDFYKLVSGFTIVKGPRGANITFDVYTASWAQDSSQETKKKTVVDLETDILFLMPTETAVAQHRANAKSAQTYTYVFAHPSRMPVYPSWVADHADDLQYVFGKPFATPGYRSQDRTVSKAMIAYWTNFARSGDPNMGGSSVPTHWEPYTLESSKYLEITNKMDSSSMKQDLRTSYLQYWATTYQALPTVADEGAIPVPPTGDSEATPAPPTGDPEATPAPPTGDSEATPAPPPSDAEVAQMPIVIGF
# ASSAY_NAME: Inhibition of porcine cholesterol esterase at 25 nM using para-nitrophenyl butyrate as substrate after 5 mins in presence of sodium taurocholate by spectrophotometric method relative to control

STRUCTURE_STRING: O=c1cc(-c2ccc(F)c(F)c2)oc2c1ccc1ccccc12
UNIT_LABEL: %
inhibition: 79
//
STRUCTURE_STRING: O=c1cc(-c2ccc([N+](=O)[O-])cc2)oc2c1ccc1ccccc12
UNIT_LABEL: %
inhibition: 69
//
STRUCTURE_STRING: O=c1cc(-c2ccc(C(F)(F)F)cc2F)oc2c1ccc1ccccc12
UNIT_LABEL: %
inhibition: 62
//
STRUCTURE_STRING: CN(C)c1ccc(-c2cc(=O)c3ccc4ccccc4c3o2)cc1
UNIT_LABEL: %
inhibition: 21
//
STRUCTURE_STRING: O=c1cc(-c2ccccc2C(F)(F)F)oc2c1ccc1ccccc12
UNIT_LABEL: %
inhibition: 48
//
STRUCTURE_STRING: O=c1cc(-c2cc(F)cc(C(F)(F)F)c2)oc2c1ccc1ccccc12
UNIT_LABEL: %
inhibition: 54
//
STRUCTURE_STRING: O=c1cc(-c2ccc(C(F)(F)F)cc2)oc2c1ccc1ccccc12
UNIT_LABEL: %
inhibition: 46
//
STRUCTURE_STRING: O=c1cc(-c2ccc(CCl)cc2)oc2c1ccc1ccccc12
UNIT_LABEL: %
inhibition: 60
//
STRUCTURE_STRING: O=c1cc(-c2ccc(F)cc2)oc2c1ccc1ccccc12
UNIT_LABEL: %
inhibition: 75
//
STRUCTURE_STRING: O=c1cc(-c2cc(C(F)(F)F)cc(C(F)(F)F)c2)oc2c1ccc1ccccc12
UNIT_LABEL: %
inhibition: 42
//
STRUCTURE_STRING: O=c1cc(-c2cc(F)ccc2C(F)(F)F)oc2c1ccc1ccccc12
UNIT_LABEL: %
inhibition: 54
